Exercise: for every item that follows, state its recorded IC50.
- measured-on: UniProtKB Q9Y6L6
- Sequence (Q9Y6L6 whole entry): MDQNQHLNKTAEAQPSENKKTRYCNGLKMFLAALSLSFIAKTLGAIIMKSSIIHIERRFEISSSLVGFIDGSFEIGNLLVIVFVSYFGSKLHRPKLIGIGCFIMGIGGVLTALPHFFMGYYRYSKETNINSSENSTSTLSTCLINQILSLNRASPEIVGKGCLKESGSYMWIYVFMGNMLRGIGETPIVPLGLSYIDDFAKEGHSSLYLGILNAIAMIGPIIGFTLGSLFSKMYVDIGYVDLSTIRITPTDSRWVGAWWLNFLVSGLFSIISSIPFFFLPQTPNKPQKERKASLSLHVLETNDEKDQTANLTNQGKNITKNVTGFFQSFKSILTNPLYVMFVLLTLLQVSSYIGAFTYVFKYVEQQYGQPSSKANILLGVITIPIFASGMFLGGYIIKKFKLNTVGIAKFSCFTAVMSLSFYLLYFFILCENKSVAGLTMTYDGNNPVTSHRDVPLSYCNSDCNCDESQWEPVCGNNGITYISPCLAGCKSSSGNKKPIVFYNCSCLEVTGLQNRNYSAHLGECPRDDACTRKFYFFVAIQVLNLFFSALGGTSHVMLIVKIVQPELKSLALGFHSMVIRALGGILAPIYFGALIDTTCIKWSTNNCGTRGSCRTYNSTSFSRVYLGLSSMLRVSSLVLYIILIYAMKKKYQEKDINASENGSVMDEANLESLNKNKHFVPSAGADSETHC
- assay: Inhibition of OATP1B1 (unknown origin) expressed in CHO cells using 8-fluorescein-cAMP substrate by fluorescent photometry
- Type: ADME, cell-based
Value expressed in µM; do not type the unit.

Given the entry `C/C=C/C[C@@H](C)[C@@H](O)[C@H]1C(=O)N[C@@H](CC)C(=O)N(C)[C@H](C)C(=O)N(C)[C@@H]([C@H](C)COCCN2CCOCC2)C(=O)N[C@@H](C(C)C)C(=O)N(C)[C@@H](CC(C)C)C(=O)N[C@@H](C)C(=O)N[C@H](C)C(=O)N(C)[C@@H](CC(C)C)C(=O)N(C)[C@@H](CC(C)C)C(=O)N(C)[C@@H](C(C)C)C(=O)N1C` , what IC50 was observed with UniProtKB Q9Y6L6?
6.4

UniProtKB Q9Y6L6 / IC50 / `C/C=C/C[C@@H](C)[C@@H](O)[C@H]1C(=O)N[C@@H](CC)C(=O)N(C)[C@H](C)C(=O)N(C)[C@@H]([C@H](C)CN2CCOCC2)C(=O)N[C@@H](C(C)C)C(=O)N(C)[C@@H](CC(C)C)C(=O)N[C@@H](C)C(=O)N[C@H](C)C(=O)N(C)[C@@H](CC(C)C)C(=O)N(C)[C@@H](CC(C)C)C(=O)N(C)[C@@H](C(C)C)C(=O)N1C` : value?
4.3

UniProtKB Q9Y6L6 / IC50 / `C/C=C/C[C@@H](C)[C@@H](O)[C@H]1C(=O)N[C@@H](CC)C(=O)N(C)[C@H](C)C(=O)N(C)[C@@H]([C@H](C)CN2CCCOCC2)C(=O)N[C@@H](C(C)C)C(=O)N(C)[C@@H](CC(C)C)C(=O)N[C@@H](C)C(=O)N[C@H](C)C(=O)N(C)[C@@H](CC(C)C)C(=O)N(C)[C@@H](CC(C)C)C(=O)N(C)[C@@H](C(C)C)C(=O)N1C` : value?
1.8
